tgt: T1, 4H967-bA
T1 chain: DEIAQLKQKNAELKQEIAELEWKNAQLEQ
test.name: two-hybrid library CCNG1;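 note: natural log of median RNA to DNA barcode read ratio; higher means stronger binding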
readout.type: interaction score
Just the number, please.

{"binder": "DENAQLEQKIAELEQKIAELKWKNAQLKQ [4H1328-bA]", "interaction score": -0.292}

Lab note: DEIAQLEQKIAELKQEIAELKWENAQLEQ [4H331-bA] gave interaction score of -1.16

The measured interaction score associated with DEIAQLKQKNAELEQKNAELKWEIAQLEQ [4H953-bA] reads -1.11

Please fill in: interaction score reported for DEIAQLEQKIAELKQENAELEWEIAQLKQ [4H338-bA] = 0.424

Cited source for all entries: paper PMC10397247
